Exercise: for every item that follows, state its recorded self-splicing fitness (ln).
# TEST PROTOCOL: self-splicing fitness, log relative to wild type (ln ratio); higher = more splicing; Tetrahymena group I intron in knt gene, E. coli kanamycin selection, DiMSum; sequences stand for … in CUCUCU…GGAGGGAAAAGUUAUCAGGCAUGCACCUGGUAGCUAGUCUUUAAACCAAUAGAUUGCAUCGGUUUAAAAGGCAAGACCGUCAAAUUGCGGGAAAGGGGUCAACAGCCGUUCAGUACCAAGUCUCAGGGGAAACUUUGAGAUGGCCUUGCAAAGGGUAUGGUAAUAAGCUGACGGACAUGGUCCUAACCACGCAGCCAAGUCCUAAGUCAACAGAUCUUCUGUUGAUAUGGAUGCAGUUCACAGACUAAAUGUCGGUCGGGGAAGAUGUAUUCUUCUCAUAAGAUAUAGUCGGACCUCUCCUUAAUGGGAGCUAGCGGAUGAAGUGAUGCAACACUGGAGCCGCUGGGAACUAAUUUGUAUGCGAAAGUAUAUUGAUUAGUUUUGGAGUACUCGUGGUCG;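 further: selection with 25 µg/mL kanamycin versus none on LB agar overnight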
# CONDITION PARAMETERS: 37 °C

Query block: Give self-splicing fitness (ln) for GUGAAGCAAUAUUACGAUUG
Result block: -1.78

Query block: Give self-splicing fitness (ln) for UCACAGCAAUAUUACGUGAA
Result block: -1.4

Query block: Give self-splicing fitness (ln) for GUUCAGCAAUAUUACGACAC
Result block: 0.897

Query block: Give self-splicing fitness (ln) for ACGAAGCAAUAUUACGCUAC
Result block: -2.81

Query block: Give self-splicing fitness (ln) for AAGGAGCAAUAUUACGUGCU
Result block: -2.92

Query block: Give self-splicing fitness (ln) for CAAGAGCAAUAUUACGUCAU
Result block: -3.57

Query block: Give self-splicing fitness (ln) for GAACAGCAAUAUUACGUAGC
Result block: -0.22

Query block: Give self-splicing fitness (ln) for AAGGAGCAAUAUUACGGUGU
Result block: -1.77

Query block: Give self-splicing fitness (ln) for UGUUAGCAAUAUUACGUGAG
Result block: -0.331

Query block: Give self-splicing fitness (ln) for UUGCAGCAAUAUUACGAGGC
Result block: -2.07

Query block: Give self-splicing fitness (ln) for AAUAAGCAAUAUUACGGUAG
Result block: -1.95

Query block: Give self-splicing fitness (ln) for UAUGAGCAAUAUUACGUAGU
Result block: -1.99

Query block: Give self-splicing fitness (ln) for AUGCAGCAAUAUUACGAGUA
Result block: -1.53

Query block: Give self-splicing fitness (ln) for GUGAAGCAAUAUUACGUCAC
Result block: -2.47

Query block: Give self-splicing fitness (ln) for CCAUAGCAAUAUUACGCUGU
Result block: -2.54

Query block: Give self-splicing fitness (ln) for ACCGAGCAAUAUUACGGGUU
Result block: -2.54

Query block: Give self-splicing fitness (ln) for GUCAAGCAAUAUUACGUGGA
Result block: -1.58

Query block: Give self-splicing fitness (ln) for ACCCAGCAAUAUUACGCAAU
Result block: 0.344

Query block: Give self-splicing fitness (ln) for CAUUAGCAAUAUUACGGGGA
Result block: -1.77

Query block: Give self-splicing fitness (ln) for UGAGAGCAAUAUUACGAUGG
Result block: -2.72

Query block: Give self-splicing fitness (ln) for GCCAAGCAAUAUUACGUGCC
Result block: -0.392

Query block: Give self-splicing fitness (ln) for CAUUAGCAAUAUUACGUAAU
Result block: -1.96

Query block: Give self-splicing fitness (ln) for ACUCAGCAAUAUUACGAUGC
Result block: -0.0529

Query block: Give self-splicing fitness (ln) for UGGAAGCAAUAUUACGGACG
Result block: 0.0618

Query block: Give self-splicing fitness (ln) for UACUAGCAAUAUUACGUAGA
Result block: -1.95

Query block: Give self-splicing fitness (ln) for UCACAGCAAUAUUACGAUAA
Result block: -0.733

Query block: Give self-splicing fitness (ln) for AUAAAGCAAUAUUACGUUUA
Result block: -0.201

Query block: Give self-splicing fitness (ln) for UAGUAGCAAUAUUACGAUGC
Result block: -2.56

Query block: Give self-splicing fitness (ln) for AACCAGCAAUAUUACGGAAU
Result block: -0.602

Query block: Give self-splicing fitness (ln) for CAAGAGCAAUAUUACGAGAG
Result block: -1.83

Query block: Give self-splicing fitness (ln) for UUAAAGCAAUAUUACGGACU
Result block: -0.0989

Query block: Give self-splicing fitness (ln) for CACUAGCAAUAUUACGGAAU
Result block: -2.3

Query block: Give self-splicing fitness (ln) for CCUCAGCAAUAUUACGCUCA
Result block: -1.74

Query block: Give self-splicing fitness (ln) for AAAAAGCAAUAUUACGAAAG
Result block: -1.03

Query block: Give self-splicing fitness (ln) for GCCAAGCAAUAUUACGCUUG
Result block: -2.41

Query block: Give self-splicing fitness (ln) for CGCGAGCAAUAUUACGAGCU
Result block: -2.22

Query block: Give self-splicing fitness (ln) for UGCAAGCAAUAUUACGAAAA
Result block: -1.64

Query block: Give self-splicing fitness (ln) for AACUAGCAAUAUUACGCGCC
Result block: -0.314

Query block: Give self-splicing fitness (ln) for CAUAAGCAAUAUUACGGAAG
Result block: -0.578

Query block: Give self-splicing fitness (ln) for UACAAGCAAUAUUACGACAC
Result block: -1.38

Query block: Give self-splicing fitness (ln) for UACUAGCAAUAUUACGACCA
Result block: -0.816

Query block: Give self-splicing fitness (ln) for ACCUAGCAAUAUUACGGGCU
Result block: -1.35

Query block: Give self-splicing fitness (ln) for AUGGAGCAAUAUUACGAGGU
Result block: -3.38

Query block: Give self-splicing fitness (ln) for UCCAAGCAAUAUUACGGAUC
Result block: -2.9

Query block: Give self-splicing fitness (ln) for UAAGAGCAAUAUUACGAGGG
Result block: -2.53

Query block: Give self-splicing fitness (ln) for ACGCAGCAAUAUUACGUAGU
Result block: -1.92

Query block: Give self-splicing fitness (ln) for GACGAGCAAUAUUACGCCUU
Result block: -1.48

Query block: Give self-splicing fitness (ln) for UGGAAGCAAUAUUACGGGUG
Result block: -0.839

Query block: Give self-splicing fitness (ln) for GGUCAGCAAUAUUACGCCGU
Result block: -0.39

Query block: Give self-splicing fitness (ln) for AAGAAGCAAUAUUACGUCUC
Result block: -1.69

Query block: Give self-splicing fitness (ln) for ACUGAGCAAUAUUACGGUAG
Result block: -1.03

Query block: Give self-splicing fitness (ln) for UUCUAGCAAUAUUACGACGG
Result block: -1.77

Query block: Give self-splicing fitness (ln) for GGCGAGCAAUAUUACGUGCC
Result block: -2.25

Query block: Give self-splicing fitness (ln) for CAAGAGCAAUAUUACGGUGA
Result block: -1.88

Query block: Give self-splicing fitness (ln) for UUUAAGCAAUAUUACGAUUG
Result block: -1.12

Query block: Give self-splicing fitness (ln) for GUAUAGCAAUAUUACGUGGG
Result block: -1.88

Query block: Give self-splicing fitness (ln) for AACCAGCAAUAUUACGAUAG
Result block: -2.11

Query block: Give self-splicing fitness (ln) for UAGUAGCAAUAUUACGGGCG
Result block: -0.395

Query block: Give self-splicing fitness (ln) for UUCGAGCAAUAUUACGGAUA
Result block: -2.08

Query block: Give self-splicing fitness (ln) for GAGUAGCAAUAUUACGUCAG
Result block: -2.24

Query block: Give self-splicing fitness (ln) for CCACAGCAAUAUUACGGCCA
Result block: -2.75

Query block: Give self-splicing fitness (ln) for CACAAGCAAUAUUACGUGCC
Result block: -2.48

Query block: Give self-splicing fitness (ln) for CCCGAGCAAUAUUACGGAUA
Result block: -2.89

Query block: Give self-splicing fitness (ln) for AAGCAGCAAUAUUACGAACA
Result block: -0.603

Query block: Give self-splicing fitness (ln) for GGACAGCAAUAUUACGCCAG
Result block: -2.07

Query block: Give self-splicing fitness (ln) for CUAAAGCAAUAUUACGCUAG
Result block: -1.84

Query block: Give self-splicing fitness (ln) for GAAAAGCAAUAUUACGUACU
Result block: -0.0522

This collection of values is drawn from the supplement of paper PMC7877785.
